Known AC50 of a selection of compounds
Experimental system: 5-hydroxytryptamine receptor 1A (Homo sapiens); note: assay procedure not described here
Sequence (P08908 whole entry): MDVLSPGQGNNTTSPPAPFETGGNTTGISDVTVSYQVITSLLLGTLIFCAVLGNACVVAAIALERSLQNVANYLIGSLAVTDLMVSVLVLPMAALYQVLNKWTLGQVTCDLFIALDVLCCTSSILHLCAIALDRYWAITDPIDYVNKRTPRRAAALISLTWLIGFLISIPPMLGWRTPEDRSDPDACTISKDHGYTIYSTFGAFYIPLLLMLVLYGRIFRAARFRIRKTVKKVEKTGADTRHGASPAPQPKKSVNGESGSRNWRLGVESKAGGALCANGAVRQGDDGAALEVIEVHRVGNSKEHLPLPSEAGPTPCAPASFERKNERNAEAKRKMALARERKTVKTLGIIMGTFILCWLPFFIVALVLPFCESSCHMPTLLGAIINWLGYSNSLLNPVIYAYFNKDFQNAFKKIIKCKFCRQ
Assay type: functional, cell-based

# Compound, AC50
rows = [
    ("CC[C@H]1OC(=O)[C@H](C)[C@@H](O[C@H]2C[C@@](C)(OC)[C@@H](O)[C@H](C)O2)[C@H](C)[C@@H](O[C@@H]2O[C@H](C)C[C@H](N(C)C)[C@H]2O)[C@](C)(O)C[C@@H](C)/C(=N\\OCOCCOC)[C@H](C)[C@@H](O)[C@]1(C)O", "> 30 µM"),
    ("Nc1ccn([C@@H]2O[C@H](CO)[C@@H](O)C2(F)F)c(=O)n1", "> 10 µM"),
    ("N#C[C@@H]1CCCN1C(=O)CNC12CC3CC(CC(O)(C3)C1)C2", "> 30 µM"),
    ("CCCN(CCC)CCc1cccc2c1CC(=O)N2", "> 30 µM"),
    ("Clc1ccc(C(Cn2ccnc2)OCc2ccc(Sc3ccccc3)cc2)c(Cl)c1 (stereo not drawn)", "> 30 µM"),
    ("NS(=O)(=O)c1cc(C2(O)NC(=O)c3ccccc32)ccc1Cl (stereo not drawn)", "> 10 µM"),
    ("N[C@H](Cc1cc(I)c(Oc2cc(I)c(O)c(I)c2)c(I)c1)C(=O)O", "> 10 µM"),
    ("CC(=O)Oc1ccccc1C(=O)Nc1ncc([N+](=O)[O-])s1 [NITAZOXANIDE]", "> 30 µM"),
    ("CC(=O)OCC(=O)[C@@]1(O)CC[C@H]2[C@@H]3CCC4=CC(=O)CC[C@]4(C)C3=CC[C@@]21C [ANECORTAVE ACETATE]", "> 10 µM"),
    ("CC(=O)Nc1c(I)c(C(=O)N[C@H]2C(O)O[C@H](CO)[C@@H](O)[C@@H]2O)c(I)c(N(C)C(C)=O)c1I (stereo partly drawn) [METRIZAMIDE]", "> 10 µM"),
    ("O=C(O)CSCC(=O)NC1CCSC1=O (stereo not drawn)", "> 30 µM"),
    ("CC[C@@H](CO)NC(=O)[C@@H]1C=C2c3cccc4[nH]cc(c34)C[C@H]2N(C)C1", "0.0144 µM"),
    ("CO[C@@]1(NC(=O)Cc2cccs2)C(=O)N2C(C(=O)O)=C(COC(N)=O)CS[C@@H]21", "> 30 µM"),
    ("COc1ccc(/C=C/C(=O)Nc2ccccc2C(=O)O)cc1OC", "> 30 µM"),
    ("CC(=O)c1ccc2c(c1)N(CCCN1CCC(CCO)CC1)c1ccccc1S2", "> 30 µM"),
    ("CC(C)=CCOc1ccc(/C=C/C(=O)c2ccc(OCC=C(C)C)cc2OCC(=O)O)cc1", "> 30 µM"),
    ("OCCN1CCN(CC/C=C2/c3ccccc3Sc3ccc(Cl)cc32)CC1", "> 10 µM"),
    ("Nc1nc(F)nc2c1ncn2[C@@H]1O[C@H](COP(=O)(O)O)[C@@H](O)[C@@H]1O [FLUDARABINE PHOSPHATE]", "> 30 µM"),
    ("CCCNC(C)C(=O)Nc1ccccc1C (stereo not drawn)", "> 30 µM"),
    ("COc1c(O[C@@H]2O[C@H](CO)[C@@H](O)[C@H](O)[C@H]2O)cc2c(c1OC)-c1ccc(SC)c(=O)cc1[C@@H](NC(C)=O)CC2 [THIOCOLCHICOSIDE]", "> 30 µM"),
    ("O=C1CN=C(c2ccccc2)c2cc(Cl)ccc2N1", "> 10 µM"),
    ("Oc1c(I)cc(Cl)c2cccnc12", "> 30 µM"),
    ("O=C1Nc2ccc(Cl)cc2C(c2ccccc2)=NC1O (stereo not drawn)", "> 10 µM"),
    ("O=C(O)c1cc(O)c2c3nc4ccccc4oc-3cc(=O)c2n1", "> 30 µM"),
    ("CCCOC(C(=O)OC1CCN(C)CC1)(c1ccccc1)c1ccccc1", "> 30 µM"),
    ("NCCCC(O)(P(=O)(O)O)P(=O)(O)O", "> 10 µM"),
    ("Cc1cc(CC(=O)O)n(C)c1C(=O)c1ccc(Cl)cc1 [ZOMEPIRAC]", "> 30 µM"),
    ("Nc1ccc(C(=O)O)c(O)c1", "> 30 µM"),
    ("Cc1ccc(NC(=O)C2(c3ccc4c(c3)OC(F)(F)O4)CC2)nc1-c1cccc(C(=O)O)c1", "> 30 µM"),
    ("CO[C@@]1(NC(=O)CSCC#N)C(=O)N2C(C(=O)O)=C(CSc3nnnn3C)CS[C@@H]21", "> 30 µM"),
    ("CCC(C)(Oc1ccc(C2(c3ccc(OC(C)(CC)C(=O)O)cc3)CCCCC2)cc1)C(=O)O (stereo not drawn) [CLINOFIBRATE]", "> 30 µM"),
    ("CC(C)C[C@H](CN)CC(=O)O", "> 30 µM"),
    ("CC1(C)C(/C=C/C=C/C=C/C=C2\\N(CCCCS(=O)(=O)O)c3ccc4ccccc4c3C2(C)C)=[N+](CCCCS(=O)(=O)[O-])c2ccc3ccccc3c21 [INDOCYANINE GREEN ACID FORM]", "> 30 µM"),
]

Hello, the source for this data is ChEMBL document CHEMBL5291721, in case you need it.
